Tested on: Pseudocercosporella herpotrichoides
methodDescription: In vitro activity against wheat eyespot (Ph)
Format: cell-based
Design: scale not given here
cond: in vitro, 100 ppm in agar, 11 days; activity grade 1 or 2, not defined
Method: (c) Activity Against Wheat Eyespot (Pseudocercosporella herpotrichoides; Ph) The test is an in vitro one. […] Diametric growth is measured with the width of the plug subtracted and results compared with growth on a sample wherein 0.7 ml acetone containing no active material is dispersed in 20 ml half-strength potato agar.
propertyLabel: Ph: activity against wheat eyespot
Reply: number alone, nothing else.

Short answer for COC(=O)N=Nc1cc(Cl)c(C)c2c1OC(C)C2 (stereo not drawn) : Ph: activity against wheat eyespot was 1

Measured Ph: activity against wheat eyespot of CC1CCc2cccc([N+]([O-])=NC#N)c2O1 (stereo not drawn) : 2

compound Cc1cc2cc([N+]([O-])=NC#N)ccc2o1 , Ph: activity against wheat eyespot observed: 1

get_value(item= N#CN=[N+]([O-])c1cccc2c3c(oc12)CCCC3 , readout=Ph: activity against wheat eyespot) returns 1

====

Quick note: these are MIC numbers for system: Desulfovibrio sp.
Your answer is read as µg/mL, so omit the unit and give the number.

Would you please look over these solved cases?
CC1(C)C=Cc2cccc([N+]([O-])=NC#N)c2O1: 100
CC1CCc2cccc([N+]([O-])=NC#N)c2O1 (stereo not shown): 100
Cc1cc2c(F)ccc([N+]([O-])=NC#N)c2o1: 50
N#CN=[N+]([O-])c1ccc2c(c1)C=CCO2: 100
N#CN=[N+]([O-])c1cc(Cl)cc2c1OC(CCl)C2 (stereo not shown): 100
CC1Oc2c(cccc2[N+]([O-])=NC#N)C1C (stereo not shown): 100
N#CN=[N+]([O-])c1cc(Cl)cc2c1OCC=C2: 100
N#CN=[N+]([O-])c1ccc2oc(=O)ccc2c1: 25

Sample CC1Cc2cc(Cl)cc([N+]([O-])=NC#N)c2O1 (stereo not shown) ; MIC observed: 100

====

Saccharomyces cerevisiae: reported MIC for various molecules.
Your answer is read as µg/mL, so omit the unit and give the number.

Some molecules with recorded MIC:
Cc1cc2c(F)ccc([N+]([O-])=NC#N)c2o1: 25
CC1Oc2c(cc(Cl)cc2[N+]([O-])=NC#N)C1C (centres unmarked): 50
CC1Oc2c(cccc2[N+]([O-])=NC#N)C1C (centres unmarked): 50
CC1Cc2cc(Cl)cc([N+]([O-])=NC#N)c2O1 (centres unmarked): 25
N#CN=[N+]([O-])c1cccc2c3c(oc12)CCCC3: 50

Form: item N#CN=[N+]([O-])c1cc(Cl)cc2c1OC(CO)C2 (centres unmarked) ; test system Saccharomyces cerevisiae; MIC: 100

Field MIC (Saccharomyces cerevisiae), entry CCC1Cc2cccc([N+]([O-])=NC#N)c2O1 (centres unmarked) : 100

Cc1cc2cccc([N+]([O-])=NC#N)c2o1 on Saccharomyces cerevisiae gives MIC = 100

====

Tested on: Puccinia Recondita
methodDescription: Direct protectant activity against wheat brown rust (Pr)
Assay type: in vivo
Set-up: scale not given here
cond: foliar spray, 1 kg/ha, 10 days; activity grade 1 or 2, not defined
A collection of molecules and their measured Pr: activity against wheat brown rust
I'd appreciate a reply containing only the number, no unit.

Here are 5 molecules together with their reported answers.
N#CN=[N+]([O-])c1cc(Cl)cc2c1OC(CO)C2 (stereo not shown): 1
N#CN=[N+]([O-])c1cccc2c3c(oc12)CCCC3: 1
Cc1oc2c([N+]([O-])=NC#N)cccc2c1C: 2
Cc1cc2cc([N+]([O-])=NC#N)ccc2o1: 2
CC1(C)Cc2cc(Cl)cc([N+]([O-])=NC#N)c2O1: 2

Form: molecule = CC1Oc2c(cc(Cl)cc2[N+]([O-])=NC#N)C1C (stereo not shown) ; Pr: activity against wheat brown rust = 2

# Pr: activity against wheat brown rust (molecule: CC1Cc2cc(Cl)cc([N+]([O-])=NC#N)c2O1 (stereo not shown) ) is 2

For this molecule ( Cc1cc2cccc([N+]([O-])=NC#N)c2o1 ), measured Pr: activity against wheat brown rust is 1

For record N#CN=[N+]([O-])c1cc(Cl)cc2c1OCC=C2 the listed Pr: activity against wheat brown rust is 1

What the record says about CCCCc1cc2cccc([N+]([O-])=NC#N)c2o1 : Pr: activity against wheat brown rust is 1
